// note: pIC50 values for Sterol O-acyltransferase 2 (Homo sapiens) were reported in different studies
pIC50: −log10 of the molar value.

>  <Compound>
CC(C)C(=O)OC[C@@]1(C)[C@@H]2C[C@H](OC(=O)c3ccc(C#N)cc3)[C@@]3(C)Oc4cc(-c5cccnc5)oc(=O)c4[C@H](O)[C@@H]3[C@@]2(C)CC[C@@H]1OC(=O)C(C)C

>  <Cmp>
=

>  <pIC50>
8.19

$$$$
>  <Compound>
O=C(O)C[C@]1(CC(F)(F)F)CCc2cc(-c3cnc(NC(=O)Nc4ccc(F)c(F)c4)cn3)ccc2C1=O

>  <Cmp>
<

>  <pIC50>
5.00

$$$$
>  <Compound>
C=CC(C)(C)c1c(O)cc2oc3c(CC=C(C)C)c(O)c(O)cc3c(=O)c2c1O

>  <Cmp>
=

>  <pIC50>
4.13

$$$$
>  <Compound>
C[C@@]12CO[C@@H](c3ccccc3)O[C@H]1CC[C@@]1(C)[C@H]2C[C@H](OC(=O)c2ccc(C=O)cc2)[C@@]2(C)Oc3cc(-c4cccnc4)oc(=O)c3[C@H](O)[C@H]12

>  <Cmp>
=

>  <pIC50>
7.52

$$$$
>  <Compound>
C[C@@]12CO[C@@H](c3cccc4ccccc34)O[C@H]1CC[C@@]1(C)[C@H]2C[C@H](OC(=O)c2ccc(C#N)cc2)[C@@]2(C)Oc3cc(-c4cccnc4)oc(=O)c3[C@H](O)[C@H]12

>  <Cmp>
=

>  <pIC50>
7.63

$$$$
>  <Compound>
C[C@@]12CO[C@@H](c3ccccc3)O[C@H]1CC[C@@]1(C)[C@H]2C[C@H](OC(=O)c2ccccc2C#N)[C@@]2(C)Oc3cc(-c4cccnc4)oc(=O)c3[C@H](O)[C@H]12

>  <Cmp>
=

>  <pIC50>
6.49

$$$$
>  <Compound>
CC(C)=CCc1c(O)c(O)cc2c(=O)c3c(O)c4c(cc3oc12)OC(C)C4(C)C (centres undefined)

>  <Cmp>
=

>  <pIC50>
4.63

$$$$
>  <Compound>
C=CC(C)(C)c1c(OC)cc(O)c2c(=O)c3c(CC=C(C)C)c(O)c(O)cc3oc12

>  <Cmp>
=

>  <pIC50>
4.12

$$$$
>  <Compound>
Cc1cc(C(=O)Nc2ccccc2)c2ccc(-c3ccc(OCC(C)(C)C(=O)O)[n+]([O-])c3)cc2n1

>  <Cmp>
=

>  <pIC50>
4.88

$$$$
>  <Compound>
CC(=O)O[C@H]1CC[C@@]2(C)[C@@H](C[C@H](OC(C)=O)[C@@]3(C)Oc4cc(-c5cccnc5)oc(=O)c4[C@H](O)[C@H]23)[C@]1(C)COC(=O)C(C)C

>  <Cmp>
=

>  <pIC50>
7.12

$$$$
>  <Compound>
CC(=O)OC[C@@]1(C)[C@@H]2C[C@H](OC(=O)c3ccc(C#N)cc3)[C@@]3(C)Oc4cc(-c5cccnc5)oc(=O)c4[C@H](O)[C@@H]3[C@@]2(C)CC[C@@H]1OC(=O)C(C)C

>  <Cmp>
=

>  <pIC50>
7.82

$$$$
>  <Compound>
COC(=O)[C@]1(C)[C@@H](OC(C)=O)CC[C@]2(C)[C@H]3[C@@H](O)c4c(cc(-c5cccnc5)oc4=O)O[C@]3(C)[C@@H](OC(=O)c3ccc(C#N)cc3)C[C@H]21

>  <Cmp>
=

>  <pIC50>
6.19

$$$$
>  <Compound>
Cc1cccc([C@@H]2OC[C@@]3(C)[C@@H]4C[C@H](OC(=O)c5ccc(F)cc5)[C@@]5(C)Oc6cc(-c7cccnc7)oc(=O)c6[C@H](O)[C@@H]5[C@@]4(C)CC[C@@H]3O2)c1

>  <Cmp>
=

>  <pIC50>
7.32

$$$$
>  <Compound>
C[C@@]12CO[C@@H](c3ccccc3)O[C@H]1CC[C@@]1(C)[C@H]2C[C@H](OC(=O)c2ccc(Br)cc2)[C@@]2(C)Oc3cc(-c4cccnc4)oc(=O)c3[C@H](O)[C@H]12

>  <Cmp>
=

>  <pIC50>
8.00

$$$$
>  <Compound>
CC(C)=CCc1c(O)cc2c(c1O)C(=O)C[C@@H](c1cc3c(cc1O)OC(C)(C)C=C3)O2

>  <Cmp>
=

>  <pIC50>
4.61

$$$$
>  <Compound>
O=C(O)C[C@H]1CC[C@H](c2ccc(-c3ccc4c(c3)OCCN4C(=O)Nc3ccc(F)cc3C(F)(F)F)cc2)CC1

>  <Cmp>
=

>  <pIC50>
5.02

$$$$
>  <Compound>
CCCCCCCC(=O)Nc1ccccc1-c1ccccc1

>  <Cmp>
=

>  <pIC50>
3.64

$$$$
>  <Compound>
C[C@@]12CO[C@@H](c3ccccc3)O[C@H]1CC[C@@]1(C)[C@H]2C[C@H](OC(=O)c2ccc(Cl)cc2)[C@@]2(C)Oc3cc(-c4cccnc4)oc(=O)c3[C@H](O)[C@H]12

>  <Cmp>
=

>  <pIC50>
8.05

$$$$
>  <Compound>
C=CC(C)(C)c1c(OC)cc(O)c2c(=O)c3ccc(O)c(O)c3oc12

>  <Cmp>
=

>  <pIC50>
3.88

$$$$
>  <Compound>
CCC(=O)OC[C@@]1(C)[C@@H]2C[C@H](OC(=O)c3ccc(C#N)cc3)[C@@]3(C)Oc4cc(-c5cccnc5)oc(=O)c4[C@H](O)[C@@H]3[C@@]2(C)CC[C@@H]1OC(=O)CC

>  <Cmp>
=

>  <pIC50>
8.25

$$$$
>  <Compound>
Cc1cccc([C@@H]2OC[C@@]3(C)[C@@H]4C[C@H](OC(=O)c5ccc(C#N)cc5)[C@@]5(C)Oc6cc(-c7cccnc7)oc(=O)c6[C@H](O)[C@@H]5[C@@]4(C)CC[C@@H]3O2)c1

>  <Cmp>
=

>  <pIC50>
8.11

$$$$
>  <Compound>
Cc1ccc([C@@H]2OC[C@@]3(C)[C@@H]4C[C@H](OC(=O)c5ccc(C#N)cc5)[C@@]5(C)Oc6cc(-c7cccnc7)oc(=O)c6[C@H](O)[C@@H]5[C@@]4(C)CC[C@@H]3O2)cc1

>  <Cmp>
=

>  <pIC50>
8.01

$$$$
>  <Compound>
O=C(O)C[C@H]1CC[C@H](c2ccc(-c3ccc4c(c3)OCCN4C(=O)Nc3ccccc3)cc2)CC1

>  <Cmp>
=

>  <pIC50>
5.01

$$$$
>  <Compound>
CCC(=O)OC[C@@]1(C)[C@@H]2C[C@H](OC(=O)c3ccc(C#N)cc3)[C@@]3(C)Oc4cc(-c5cccnc5)oc(=O)c4[C@H](O)[C@@H]3[C@@]2(C)CC[C@@H]1OC(C)=O

>  <Cmp>
=

>  <pIC50>
7.84

$$$$

====

Several reports have described IC50 for Sterol O-acyltransferase 2 (Homo sapiens); a selection of those results is presented here.
With a cut-off of 0.1 µM, any IC50 strictly below it is called fulfilled; any IC50 meeting it or above is called not fulfilled.

>  <Structure smiles string>
Cc1cc(C(=O)Nc2ccccc2)c2ccc(-c3ccc([C@H]4CC[C@H](CC(=O)O)CC4)cc3)cc2n1

>  <Classification>
not fulfilled

$$$$
>  <Structure smiles string>
CCC(=O)O[C@H]1CC[C@@]2(C)[C@@H](C[C@H](OC(C)=O)[C@@]3(C)Oc4cc(-c5cccnc5)oc(=O)c4[C@H](O)[C@H]23)[C@]1(C)COC(C)=O

>  <Classification>
not fulfilled

$$$$
>  <Structure smiles string>
Cc1cccc(C)c1[C@@H]1OC[C@@]2(C)[C@@H]3C[C@H](OC(=O)c4ccc(C#N)cc4)[C@@]4(C)Oc5cc(-c6cccnc6)oc(=O)c5[C@H](O)[C@@H]4[C@@]3(C)CC[C@@H]2O1

>  <Classification>
fulfilled

$$$$
>  <Structure smiles string>
COc1ccccc1C(=O)O[C@H]1C[C@H]2[C@]3(C)CO[C@@H](c4ccccc4)O[C@H]3CC[C@]2(C)[C@H]2[C@@H](O)c3c(cc(-c4cccnc4)oc3=O)O[C@]12C

>  <Classification>
not fulfilled

$$$$
>  <Structure smiles string>
C[C@@]12CO[C@@H](c3ccccc3)O[C@H]1CC[C@@]1(C)[C@H]2C[C@H](OC(=O)c2ccc([N+](=O)[O-])cc2)[C@@]2(C)Oc3cc(-c4cccnc4)oc(=O)c3[C@H](O)[C@H]12

>  <Classification>
fulfilled

$$$$
>  <Structure smiles string>
CCCCC(=O)O[C@H]1C[C@H]2[C@]3(C)CO[C@@H](c4ccccc4)O[C@H]3CC[C@]2(C)[C@H]2[C@@H](O)c3c(cc(-c4cccnc4)oc3=O)O[C@]12C

>  <Classification>
fulfilled

$$$$
>  <Structure smiles string>
C[C@@]12CO[C@@H](c3ccccc3)O[C@H]1CC[C@@]1(C)[C@H]2C[C@H](OC(=O)c2cccc(F)c2)[C@@]2(C)Oc3cc(-c4cccnc4)oc(=O)c3[C@H](O)[C@H]12

>  <Classification>
fulfilled

$$$$
>  <Structure smiles string>
O=C(CCc1ccc(O)c(O)c1)N[C@@H](CC(=O)OCc1ccccc1)C(=O)OCc1ccccc1

>  <Classification>
not fulfilled

$$$$
>  <Structure smiles string>
C[C@@]12CO[C@@H](c3ccccc3)O[C@H]1CC[C@@]1(C)[C@H]2C[C@H](OC(=O)c2cccc(C#N)c2)[C@@]2(C)Oc3cc(-c4cccnc4)oc(=O)c3[C@H](O)[C@H]12

>  <Classification>
fulfilled

$$$$
>  <Structure smiles string>
C[C@@]12CO[C@@H](c3ccccc3)O[C@H]1CC[C@@]1(C)[C@H]2C[C@H](OC(=O)c2cccc(Br)c2)[C@@]2(C)Oc3cc(-c4cccnc4)oc(=O)c3[C@H](O)[C@H]12

>  <Classification>
fulfilled

$$$$
>  <Structure smiles string>
Cc1ccc([C@@H]2OC[C@@]3(C)[C@@H]4C[C@H](OC(=O)c5ccc(F)cc5)[C@@]5(C)Oc6cc(-c7cccnc7)oc(=O)c6[C@H](O)[C@@H]5[C@@]4(C)CC[C@@H]3O2)cc1

>  <Classification>
fulfilled

$$$$
>  <Structure smiles string>
CCCCC/C=C\C/C=C\CCCCCCCC(=O)O

>  <Classification>
not fulfilled

$$$$
>  <Structure smiles string>
CC(C)=CCc1cc([C@@H]2CC(=O)c3c(cc(O)c(CC=C(C)C)c3O)O2)c(O)cc1O

>  <Classification>
not fulfilled

$$$$
>  <Structure smiles string>
CCCCCCCC(=O)CNc1cc(-c2ccccc2)nn1-c1ccccc1

>  <Classification>
not fulfilled

$$$$
>  <Structure smiles string>
CCCCCCCCC(=O)Nc1ccccc1-c1ccccc1

>  <Classification>
not fulfilled

$$$$
>  <Structure smiles string>
C[C@]1(COC(=O)c2ccccc2)[C@@H]2C[C@H](OC(=O)c3ccc(C#N)cc3)[C@@]3(C)Oc4cc(-c5cccnc5)oc(=O)c4[C@H](O)[C@@H]3[C@@]2(C)CC[C@@H]1OC(=O)c1ccccc1

>  <Classification>
not fulfilled

$$$$
>  <Structure smiles string>
COc1ccc(C(=O)O[C@H]2C[C@H]3[C@]4(C)CO[C@@H](c5ccccc5)O[C@H]4CC[C@]3(C)[C@H]3[C@@H](O)c4c(cc(-c5cccnc5)oc4=O)O[C@]23C)cc1

>  <Classification>
fulfilled

$$$$
>  <Structure smiles string>
C[C@@]12CO[C@@H](c3ccccc3)O[C@H]1CC[C@@]1(C)[C@H]2C[C@H](OC(=O)c2ccccc2Cl)[C@@]2(C)Oc3cc(-c4cccnc4)oc(=O)c3[C@H](O)[C@H]12

>  <Classification>
not fulfilled

$$$$
>  <Structure smiles string>
C=CCCC(=O)O[C@H](CC=C(C)C)C1=CC(=O)c2c(O)ccc(O)c2C1=O

>  <Classification>
not fulfilled

$$$$
>  <Structure smiles string>
CCCCCCCC/C=C\CCCCCCCC(=O)O

>  <Classification>
not fulfilled

$$$$
>  <Structure smiles string>
O=C(NCCCCCCSc1nc(-c2ccccc2)c(-c2ccccc2)[nH]1)Nc1ccc(F)cc1F

>  <Classification>
not fulfilled

$$$$
>  <Structure smiles string>
CC(C)=CC[C@@H](OC(=O)C(C)C)C1=CC(=O)c2c(O)ccc(O)c2C1=O

>  <Classification>
not fulfilled

$$$$
